Biological target: Syk tandem SH2 (tSH2) domain
Experiment: FP; 20 mM KCl, 130 mM NaCl
Non-standard residues stand in square brackets, D forms with d. No end group written: not given here. pY = N[C@@H](Cc1ccc(OP(=O)(O)O)cc1)C(=O)O
Endpoint label: Kd (nM)

>  <Binder>
NQL[pY]NELNLGRREE[pY]DVLD (also: AlexaFluor 488 label, position not given here) [ITAM-ζ1-Y2P peptide labeled with AlexaFluor488]

>  <Unit abbreviation>
nM

>  <Val>
81.1

$$$$
